Consider the following molecules and their measured GI50 readings.
- System: COLO 205
- experimental details: NCI tumour cell line growth inhibition, 48 h
Calls of active or inactive are those of the source. No stated cut-off is given here; in the data, active = GI50 up to about 1.1 µM and inactive = higher.

# molecule, readout kind, result
records = [
    ("CC(C)(CN1CCCCC1)C(=O)CC(SCCS(=O)(=O)O)c1ccc(Cl)c(Cl)c1 (stereo not drawn)", "GI50", "2.58 µM (inactive)"),
    ("COc1ccc(CN2CC(C)(C)C2=O)c(OC)c1", "GI50", "> 100 µM (inactive)"),
]

Field: next molecule
Inquiry: Could you tell me which GI50 is on file for O=C1c2ccc(O)c(O)c2C(=O)c2c(O)ccc(O)c21 [QUINALIZARIN] ?
Reply text: 22.2 µM (inactive)
